Attribution: a melting point compilation (Tetko et al.; mined from patent text by program, amines drawn as free bases though some values may be those of a salt)

Could you please report measured melting point for the items listed next?

Given the compound `Clc1ccc(N2CCN(CCCc3c4c(nn3-c3ccc(Cl)cc3)CCCC4)CC2)cc1` , write its reported melting point.
129 to 131 °C

Given the compound `CCc1cnc2c(NC(=O)c3c(Cl)cccc3Cl)cccc2c1CC(C)(C)O` , write its reported melting point.
203 to 204 °C

Given the compound CCOC(=O)C1=Cc2c(F)cccc2OC1C(F)(F)F (centres undefined) , write its reported melting point.
45.5 to 47 °C

Given the compound COc1ccc2c(c1)CCC1C2CCC2(CC(C)C)C(O)CCC12 (centres undefined) , write its reported melting point.
103 to 104 °C

Given the compound CCC(=O)C1C(=O)CC(c2ccccc2Cl)CC1=O (centres undefined) , write its reported melting point.
63 to 64 °C

Given the compound `O=C(CSc1nc2ccccc2[nH]1)c1ccc(Br)cc1` , write its reported melting point.
241 to 245 °C

Given the compound CCCC(=O)C1=C(O)CC(c2c(C)c(C)c(C)c3c2OCC3)CC1=O (centres undefined) , write its reported melting point.
140 °C

Given the compound N#Cc1cc(/C=C/C(c2cc(Cl)c(Cl)c(Cl)c2)C(F)(F)F)ccc1-n1cnc(N)n1 (centres undefined) , write its reported melting point.
72 to 75 °C

Given the compound `CCC(CC)(CC(=O)Nc1cccc(SCc2ccc3ccc(F)cc3n2)c1)C(=O)O` , write its reported melting point.
70 to 71 °C

Given the compound `CC1(C)COC(c2ccc3c(c2-c2c(C4=NC(C)(C)CO4)ccc4c2OCO4)OCO3)=N1` , write its reported melting point.
152 to 154 °C

Given the compound `CCOC(=O)Cn1c2cccccc-2c(C#N)c1=O` , write its reported melting point.
149 to 151 °C

Given the compound `Cc1c[nH]c(=O)nc1-n1cncn1` , write its reported melting point.
258 to 264 °C

Given the compound `C=CC(=O)NCc1c(-c2ccccc2)noc1C` , write its reported melting point.
149 to 151 °C

Given the compound `CCSC(=N)Nc1ccc(CCN(C)Cc2ccccc2)cc1` , write its reported melting point.
136 to 137 °C

Given the compound CS(=O)c1cccc(-n2c(=O)n(Cc3ccncc3)c(=O)c3cccnc32)c1 (centres undefined) , write its reported melting point.
218 to 219 °C

Given the compound `Cc1nc(-c2ccc(-c3ccc(C(=O)O)cc3)c(C)c2)no1` , write its reported melting point.
229 to 231 °C

Given the compound `Cn1c(C(F)(F)F)cc(=O)n(-c2ccc3snc(C(C)(C)C(=O)O)c3c2)c1=O` , write its reported melting point.
155 to 156 °C

Given the compound `C[C@@H](Nc1ncnc2[nH]c(-c3ccc(CN(CCO)CCO)cc3)cc12)c1ccccc1` , write its reported melting point.
194 to 197 °C

Given the compound `CCCn1nc2c(NC)nc3ccccc3c2c1N` , write its reported melting point.
200 to 201 °C

Given the compound CCC(C)(C)N1C(=O)C2(COc3cc4c(cc32)OCCO4)c2ccccc21 (centres undefined) , write its reported melting point.
111 to 113 °C

Given the compound `Fc1ccc(Cn2c(NC3CCN(CCNc4ncccn4)CC3)nc3ccccc32)cc1` , write its reported melting point.
168 °C

Given the compound `OCC(CO)c1nc(NCc2ccccn2)c2c(-c3ccccc3)csc2n1` , write its reported melting point.
137 to 139 °C

Given the compound `Cc1nccnc1NCCN1CCC(NC(=O)c2cc(Cl)c(N)c3c2OC(C)(C)C3)CC1` , write its reported melting point.
163 °C

Given the compound `O=C(OCc1ccccc1)[C@H](O)CCc1ccccc1` , write its reported melting point.
59 to 60 °C

Given the compound `O=C(Nc1cccc([N+](=O)[O-])c1)c1ccccc1SSc1ccccc1C(=O)Nc1cccc([N+](=O)[O-])c1` , write its reported melting point.
> 270 °C

Given the compound COc1ccc2c(c1)N(c1ccc(F)cc1)C(=O)C2NC(=O)c1cc2ccccc2cn1 (centres undefined) , write its reported melting point.
219 to 220 °C

Given the compound N#CC(C(=O)c1ccc(Cl)cc1)c1ccncc1 (centres undefined) , write its reported melting point.
225 to 235 °C

Given the compound NS(=O)(=O)C1=CCC(n2nc(C(F)(F)F)c3ccc4ccccc4c32)C=C1 (centres undefined) , write its reported melting point.
257 to 258 °C

Given the compound `CCOC(=O)Nc1c(Cl)cc(OC)c(OC)c1C(=O)OCC` , write its reported melting point.
111 to 113 °C

Given the compound `CC(C)(C)c1cc(SCCO)cc(C(C)(C)C)c1O` , write its reported melting point.
66 °C

Given the compound CSC1C(=O)Nc2ccc(-c3ccccc3)cc21 (centres undefined) , write its reported melting point.
170 to 172 °C

Given the compound `COc1cc2c(cc1OC)C(c1cccc(C(F)(F)F)c1)=NN=C(C)C2` , write its reported melting point.
134 to 135 °C

Given the compound `O=C(CC(=O)Nc1ccc2c(c1)NC(=O)C2)Nc1ccc(F)cc1` , write its reported melting point.
221 °C

Given the compound `COc1ccc(-c2[nH]c3cn[nH]c(=O)c3c2Cl)cc1OC1CC1` , write its reported melting point.
293 to 294 °C

====

Measurement type: melting point

Given the molecule COC(=O)c1ccc2c(c1)S(=O)c1cc3c(cc1CC2)CCC3 (stereo not drawn) , write its reported melting point.
150 to 154 °C

Given the molecule `CCCC(=O)c1cnc2nc(C)c(OCC)cc2c1O` , write its reported melting point.
240 to 241 °C

Given the molecule `CC(C)(C)c1cc(SCc2ccc(-c3nnn[nH]3)cc2)cc(C(C)(C)C)c1` , write its reported melting point.
187 to 189 °C

Given the molecule `NC(=O)Cc1cc(Oc2ccc3c(ccn3C(=O)Nc3ccc(N4CCOCC4)c(C(F)(F)F)c3)c2)ncn1` , write its reported melting point.
272 to 275 °C

Given the molecule OCC1(c2nn(Cc3ccccc3F)c3nccnc23)CC=CO1 (stereo not drawn) , write its reported melting point.
194 °C

Given the molecule `CCN1c2ncccc2C(=NOC)Nc2c(C)cc(C)nc21` , write its reported melting point.
164 to 166 °C

Given the molecule `Cc1oc(-c2ccccc2)nc1CCc1nc(CCl)cs1` , write its reported melting point.
89 to 90 °C

Given the molecule `COc1cc(-c2ncc(C(F)(F)F)cc2Cl)c(F)cc1Cl` , write its reported melting point.
105 to 106 °C

Given the molecule `CC(C)c1nc(CCCO)n(CCO)c1Sc1cc(Cl)cc(Cl)c1` , write its reported melting point.
155 to 163 °C

Given the molecule `COc1cc(Nc2nc3cccc(-c4ccc(S(C)(=O)=O)cc4)c3o2)cc(OC)c1OC` , write its reported melting point.
205 to 207 °C

Given the molecule `CCC(=C(c1ccc(I)cc1)c1ccc(OCCCCl)cc1)c1ccccc1` , write its reported melting point.
98 to 100 °C

Given the molecule `BrCc1ccc(-c2onc3ccccc23)cc1` , write its reported melting point.
146 to 147 °C

Given the molecule `CCc1cc(=O)c2nc(OCCO[Si](c3ccccc3)(c3ccccc3)C(C)(C)C)ccc2[nH]1` , write its reported melting point.
209 to 210 °C

====

Could you please report measured melting point for the items listed next?

Given the compound `Cc1ncc(Cn2c(CC3CCN(Cc4ccccc4)CC3)nc3ccccc32)o1` , write its reported melting point.
109 °C

Given the compound c1ccc(NCC2CCCO2)cc1 (stereo unspecified) , write its reported melting point.
149 to 156 °C

Given the compound `CCN(CC)C(=O)c1ccc(C)c(-c2nc(SC)nc3c2CNC(=O)N3c2c(F)cccc2F)c1` , write its reported melting point.
127 to 129 °C

Given the compound `CCN(C)c1nn(C)c2ncc(-c3ccncc3)cc12` , write its reported melting point.
182 to 197 °C

Given the compound `Cc1noc(NS(=O)(=O)c2ccccc2-c2ccc(-c3ncco3)cc2CN2Cc3ccccc3C2=O)c1C` , write its reported melting point.
135 to 142 °C

Given the compound `O=[N+]([O-])c1ccccc1Nc1nc(-c2ccccc2)cs1` , write its reported melting point.
114 to 116 °C

Given the compound `c1ccc(CCNc2nccc3ccccc23)cc1` , write its reported melting point.
110 to 112 °C

Given the compound `Cc1cccc(C=NNC(=O)c2ccc(O)cc2)c1` , write its reported melting point.
242 °C

Given the compound `CCCCCCCCCCCCCCCC(=O)NS(=O)(=O)CCCC(=O)O` , write its reported melting point.
156 to 157 °C

Given the compound `CC1CCN(C(=O)c2nc(-c3ccccc3)nc3ccccc23)CC1` , write its reported melting point.
138 °C

Given the compound `CCCCCCCCCC(=O)Oc1ccc(N(CC(=O)O)CC(=O)O)cc1OC(=O)CCCCCCCCC` , write its reported melting point.
131 to 133 °C

====

Measurement type: melting point

Given the compound `CC(=O)Nc1ccc(Cc2cc(C)c(C(=O)c3ccc(Cl)cc3)n2C)nc1` , write its reported melting point.
194 to 195 °C

Given the compound `C[C@]12CCC(=O)N[C@@H]1CCc1cc(C=O)ccc12` , write its reported melting point.
185 to 189 °C

Given the compound `CCOC(=O)c1cnc(-c2ccccc2)nc1OCc1ccc(OCc2nc(-c3ccco3)oc2C)c(OC)c1` , write its reported melting point.
142 to 143 °C

Given the compound `CCC(CC)NC(=O)C[C@@H](C(=O)NC[C@@H](O)[C@H](Cc1ccccc1)NC(=O)[C@@H](NC(=O)c1ccc2ccccc2n1)[C@@H](C)O)C(C)(C)C` , write its reported melting point.
110 to 125 °C

Given the compound CN1CC[C@H](CP(=O)(O)O)C[C@@H]1C(=O)O (relative stereo) , write its reported melting point.
256 to 260 °C

Given the compound C[Si](C)(C)OC1(c2ccccc2F)C(=O)Nc2ccc(Cl)cc21 (configuration not stated) , write its reported melting point.
125 to 127 °C

Given the compound `O=C(O)Cc1ccccc1Sc1ccc(F)c(Cl)c1` , write its reported melting point.
85 to 87 °C

Given the compound `Cn1c(C(F)(F)F)cc(=O)n(Nc2cccc(Cl)c2Cl)c1=O` , write its reported melting point.
179 °C

Given the compound `Cc1cc(C(F)(F)F)nc2nc(N)ccc12` , write its reported melting point.
255 to 257 °C

Given the compound `CC(=O)CSc1nc2ccccc2cc1-c1ccc(F)cc1` , write its reported melting point.
95 to 96 °C

Given the compound `CS(=O)(=O)c1ccc(CC(=O)c2ccc(F)cc2)cc1` , write its reported melting point.
182 to 183 °C

Given the compound `COc1cc(NCCC(=O)O)c(C(C)=O)cc1OC` , write its reported melting point.
150 to 152 °C
